System: Rat hearts
Assay: Cardiac activity: rat hearts perfused by the Langendorff procedure
Protocol conditions: Rattus norvegicus, read-out: Heart Tension
Description: Rat hearts were perfused by the Langendorff procedure as follows:- • Hearts were dissected free within 30 seconds of death and reverse perfused via the aorta and coronary vessels with Krebs-Ringer bicarbonate solution (pH 7.4, 37°C) gassed with 95% oxygen:5% carbon dioxide at a flow rate between 8-12 cm^3/minute. Responses were observed after injection of drug dissolved in isotonic saline into the perfusion media. Results are expressed as a percentage of the maximum response due to salbutamol.
Measured attribute: Emax at 0.01 mg (%)

{"Compound": "Br.Br.CNCCOc1ccc(CC(C)NCC(O)c2ccccc2F)cc1 (stereo not shown) [Example 7, dihydrobromide]", "Subject of test": "Rat hearts", "Measurement unit": "%", "Measured number": 18}
{"Compound": "CC(Cc1ccc(OCCN(C)C)cc1)NCC(O)c1cccc(C(F)(F)F)c1.Cl.Cl (stereo not shown) [Example 2, dihydrochloride]", "Subject of test": "Rat hearts", "Measurement unit": "%", "Measured number": 0}
{"Compound": "CNCCOc1ccc(CC(C)NCC(O)c2cccc(Cl)c2F)cc1.Cl.Cl (stereo not shown) [Example 11, dihydrochloride]", "Subject of test": "Rat hearts", "Measurement unit": "%", "Measured number": 60}
{"Compound": "Br.Br.CNCCOc1ccc(CC(C)NCC(O)c2cccc(Br)c2)cc1 (stereo not shown) [Example 8, dihydrobromide]", "Subject of test": "Rat hearts", "Measurement unit": "%", "Measured number": 20}

* * *

Test system: Female CFLP mice
Assay: Anti-hyperglycaemic activity: subcutaneous glucose load in fasted mice, area under blood glucose curve
Format: in vivo
Protocol conditions: 2.5 μ moles/kg po, glucose 1 g/kg sc, 2 hour period, vs water control
Measured attribute: Reduction in area under Blood glucose curve (%)

{"Compound": "CC(Cc1ccc(OCCNCc2ccccc2)cc1)NCC(O)c1cccc(C(F)(F)F)c1 (centres unmarked)", "Subject of test": "Female CFLP mice", "Measurement unit": "%", "Measured number": 50}
{"Compound": "CNCCOc1ccc(CC(C)NCC(O)c2cc3ccccc3o2)cc1.Cl.Cl (centres unmarked)", "Subject of test": "Female CFLP mice", "Measurement unit": "%", "Measured number": 18}
{"Compound": "CCOC(=O)NCCOc1ccc(CC(C)NCC(O)c2cccc(C(F)(F)F)c2)cc1 (centres unmarked)", "Subject of test": "Female CFLP mice", "Measurement unit": "%", "Measured number": 36}
{"Compound": "CC(=O)NCCOc1ccc(CC(C)NCC(O)c2cccc(C(F)(F)F)c2)cc1 (centres unmarked)", "Subject of test": "Female CFLP mice", "Measurement unit": "%", "Measured number": 44}
{"Compound": "CNCCOc1ccc(C[C@H](C)NC[C@H](O)c2cccc(C(F)(F)F)c2)cc1", "Subject of test": "Female CFLP mice", "Measurement unit": "%", "Measured number": 20}
